Value source: ChEMBL document CHEMBL3046360

Assay: Selectivity ratio of MCC for human HEL cells to EC50 for Herpes simplex virus 1 KOS
Assay type: ADME, cell-based
selectivity ratio reference
MEASUREMENT_TYPE: selectivity ratio

compound="Clc1ccc(C2=NN(c3ccccc3)C(c3ccc(OCc4ccccc4)cc3)C2)cc1 (centres undefined)" test_result="> 5"
compound="Cc1ccc(C2=NN(c3ccccc3)C(c3ccc(OCc4ccccc4)cc3)C2)cc1 (centres undefined)" test_result="> 5"
compound="Brc1ccc(C2=NN(c3ccccc3)C(c3ccc(OCc4ccccc4)cc3)C2)cc1 (centres undefined)" test_result="> 5"
compound="c1ccc(COc2ccc(C3CC(c4ccccc4)=NN3c3ccccc3)cc2)cc1 (centres undefined)" test_result="> 5"

###

Tested on: Respiratory syncytial virus
Experiment: Antiviral activity against Respiratory syncytial virus infected HeLa cells assessed as inhibition of virus-induced cytopathic effect after 3 days by MTT assay
Format: functional, organism-based
Conditions: human respiratory syncytial virus, 72 h
Examples of compounds with documented EC50 follow.
MEASUREMENT_TYPE: EC50

compound="Clc1ccc(C2=NN(c3ccccc3)C(c3ccc(OCc4ccccc4)cc3)C2)cc1 (stereo not given)" target_entity="Respiratory syncytial virus" test_result="> 20 µg/mL"
compound="Nc1ncnc2c1ncn2C[C@H](O)CO [(S)-DHPA]" target_entity="Respiratory syncytial virus" test_result="> 250 µM"
compound="c1ccc(COc2ccc(C3CC(c4ccccc4)=NN3c3ccccc3)cc2)cc1 (stereo not given)" target_entity="Respiratory syncytial virus" test_result="> 20 µg/mL"
compound="Brc1ccc(C2=NN(c3ccccc3)C(c3ccc(OCc4ccccc4)cc3)C2)cc1 (stereo not given)" target_entity="Respiratory syncytial virus" test_result="> 20 µg/mL"
compound="Cc1ccc(C2=NN(c3ccccc3)C(c3ccc(OCc4ccccc4)cc3)C2)cc1 (stereo not given)" target_entity="Respiratory syncytial virus" test_result="> 20 µg/mL"

###

Measured EC50 by item
Test system: Human respirovirus 3
Assay: Antiviral activity against Human parainfluenza virus 3 infected Vero cells assessed as inhibition of virus-induced cytopathic effect after 3 days by MTT assay
Assay type: functional, organism-based
Settings: Human respirovirus 3, Vero, 72 h
MEASUREMENT_TYPE: EC50

molecule="c1ccc(COc2ccc(C3CC(c4ccccc4)=NN3c3ccccc3)cc2)cc1 (stereo unspecified)" test_result="> 20 µg/mL"
molecule="Brc1ccc(C2=NN(c3ccccc3)C(c3ccc(OCc4ccccc4)cc3)C2)cc1 (stereo unspecified)" test_result="> 20 µg/mL"
molecule="NC(=O)c1ncn([C@@H]2O[C@H](CO)[C@@H](O)[C@H]2O)n1 [RIBAVIRIN]" test_result="45 µM"
molecule="Nc1ncnc2c1ncn2C[C@H](O)CO [(S)-DHPA]" test_result="> 250 µM"
molecule="Cc1ccc(C2=NN(c3ccccc3)C(c3ccc(OCc4ccccc4)cc3)C2)cc1 (stereo unspecified)" test_result="> 20 µg/mL"
molecule="Clc1ccc(C2=NN(c3ccccc3)C(c3ccc(OCc4ccccc4)cc3)C2)cc1 (stereo unspecified)" test_result="> 20 µg/mL"

###

Tested on: Human alphaherpesvirus 1
Assay: Antiviral activity against Human herpesvirus 1 infected Vero cells assessed as reduction in viral plaque at 10 ug/ml after overnight incubation by crystal violet staining
Format: functional
Design: scale not given: the % may be the effect or the level left
Label TRUE when Activity >= 10%; otherwise FALSE.

molecule="Brc1ccc(C2=NOC(c3ccc(OCc4ccccc4)cc3)C2)cc1 (stereo not drawn)" assigned_label=TRUE
molecule="Clc1ccc(C2=NN(c3ccccc3)C(c3ccc(OCc4ccccc4)cc3)C2)cc1 (stereo not drawn)" assigned_label=TRUE
molecule="Cc1ccc(C2=NOC(c3ccc(OCc4ccccc4)cc3)C2)cc1 (stereo not drawn)" assigned_label=TRUE
molecule="Clc1ccc(C2=NOC(c3ccc(OCc4ccccc4)cc3)C2)cc1 (stereo not drawn)" assigned_label=TRUE
molecule="c1ccc(COc2ccc(C3CC(c4ccccc4)=NN3c3ccccc3)cc2)cc1 (stereo not drawn)" assigned_label=FALSE
molecule="c1ccc(COc2ccc(C3CC(c4ccccc4)=NO3)cc2)cc1 (stereo not drawn)" assigned_label=FALSE
molecule="Cc1ccc(C2=NN(c3ccccc3)C(c3ccc(OCc4ccccc4)cc3)C2)cc1 (stereo not drawn)" assigned_label=TRUE
molecule="Brc1ccc(C2=NN(c3ccccc3)C(c3ccc(OCc4ccccc4)cc3)C2)cc1 (stereo not drawn)" assigned_label=TRUE

###

Overview of reported EC50 across a group of molecules:
Tested on: Punta Toro virus
Assay: Antiviral activity against Punta Toro virus infected Vero cells assessed as inhibition of virus-induced cytopathic effect after 3 days by MTT assay
Type: functional, organism-based
Settings: 72 h
MEASUREMENT_TYPE: EC50

molecule="Brc1ccc(C2=NN(c3ccccc3)C(c3ccc(OCc4ccccc4)cc3)C2)cc1 (stereo not given)" test_result="> 20 µg/mL"
molecule="Nc1ncnc2c1ncn2C[C@H](O)CO [(S)-DHPA]" test_result="> 250 µM"
molecule="c1ccc(COc2ccc(C3CC(c4ccccc4)=NN3c3ccccc3)cc2)cc1 (stereo not given)" test_result="> 20 µg/mL"
molecule="Cc1ccc(C2=NN(c3ccccc3)C(c3ccc(OCc4ccccc4)cc3)C2)cc1 (stereo not given)" test_result="> 20 µg/mL"
molecule="Clc1ccc(C2=NN(c3ccccc3)C(c3ccc(OCc4ccccc4)cc3)C2)cc1 (stereo not given)" test_result="> 20 µg/mL"
